Listing of entries alongside the reported inflexion point.
Measured target: T1, cynomolgus Tim3 (ELISA) (cynomolgus, UniProt A0A2K5U3G7 22-193)
T1 construct: also called Biochem Cyno; cyno TIM3
T1 sequence: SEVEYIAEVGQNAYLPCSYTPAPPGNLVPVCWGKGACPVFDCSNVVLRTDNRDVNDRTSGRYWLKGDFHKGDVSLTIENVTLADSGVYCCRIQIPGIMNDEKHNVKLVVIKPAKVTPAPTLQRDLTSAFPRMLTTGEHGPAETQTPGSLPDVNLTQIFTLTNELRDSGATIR
Test name: ELISA, cyno Tim3
Note: unit ng/mL is implicit; provide only the numeric part.

Examples with answers:
Binder: Tim3_0016 variant (Tim3_0018) (antibody, V domains shown, also called TIM3-0016 variant (0018); aTim3 0018) VH: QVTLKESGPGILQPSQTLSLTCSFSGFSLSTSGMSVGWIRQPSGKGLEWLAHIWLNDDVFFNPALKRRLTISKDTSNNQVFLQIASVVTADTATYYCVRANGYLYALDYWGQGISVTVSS VL: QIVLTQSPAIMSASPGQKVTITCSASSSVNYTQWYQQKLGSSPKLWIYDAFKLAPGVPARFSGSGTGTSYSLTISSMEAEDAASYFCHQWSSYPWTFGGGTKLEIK
inflexion point, ng/mL: 14.6
--
Binder: aTim3 0016 MutNQ (antibody, V domains shown) VH: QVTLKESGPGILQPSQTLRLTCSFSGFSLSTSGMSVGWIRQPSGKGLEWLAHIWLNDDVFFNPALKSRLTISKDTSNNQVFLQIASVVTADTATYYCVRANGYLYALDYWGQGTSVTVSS VL: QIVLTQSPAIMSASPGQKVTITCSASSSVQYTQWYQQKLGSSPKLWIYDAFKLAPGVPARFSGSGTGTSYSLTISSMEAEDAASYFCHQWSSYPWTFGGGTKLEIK
inflexion point, ng/mL: 5.7
--
Binder: aTim3 0018MutNS (antibody, V domains shown, also called aT3m3 0018MutNS) VH: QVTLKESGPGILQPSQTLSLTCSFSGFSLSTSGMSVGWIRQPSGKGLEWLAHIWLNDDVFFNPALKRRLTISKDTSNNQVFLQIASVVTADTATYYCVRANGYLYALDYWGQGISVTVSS VL: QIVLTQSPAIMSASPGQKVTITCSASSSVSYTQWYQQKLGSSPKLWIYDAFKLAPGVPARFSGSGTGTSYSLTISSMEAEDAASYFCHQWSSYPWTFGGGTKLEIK
inflexion point, ng/mL: 6.5

*Q* Which inflexion point is listed for aTim3 0018MutNQ (antibody, V domains shown, also called aT3m3 0018MutNQ) VH: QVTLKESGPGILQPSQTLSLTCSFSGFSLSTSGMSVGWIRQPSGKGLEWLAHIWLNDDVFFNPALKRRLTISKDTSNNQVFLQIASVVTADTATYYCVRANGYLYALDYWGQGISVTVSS VL: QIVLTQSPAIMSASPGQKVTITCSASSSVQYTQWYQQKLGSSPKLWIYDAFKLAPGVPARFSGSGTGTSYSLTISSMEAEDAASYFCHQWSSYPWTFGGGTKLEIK ?
*A* 10.8

*Q* What about aTim3 0016MutNS (antibody, V domains shown) VH: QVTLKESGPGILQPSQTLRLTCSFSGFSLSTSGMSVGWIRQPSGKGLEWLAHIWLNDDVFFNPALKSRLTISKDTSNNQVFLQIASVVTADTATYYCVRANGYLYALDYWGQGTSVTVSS VL: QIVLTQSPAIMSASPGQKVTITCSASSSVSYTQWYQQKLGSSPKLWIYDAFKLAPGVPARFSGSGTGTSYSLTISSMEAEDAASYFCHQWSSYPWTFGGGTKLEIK ?
*A* 5.5
